ASSAY_EXPLANATION: Metabolic stability in human hepatic microsome
Type: in vitro ADME
CONDITION_SUMMARY: microsomes, pH 7.4; human hepatic microsome, NADPH(+); read-out: CL NADPH(+)
Positions of bridges follow the written chain, without caps; N, C: chain ends. Non-standard residues stand in square brackets, D forms with d. Residues, ends and D or L forms follow the SMILES beside them. *: point of attachment. NMePhe(3-Cl) = CN[C@@H](Cc1cccc(Cl)c1)C(=O)O; Ala(4-thiazolyl) = N[C@@H](Cc1cscn1)C(=O)O; NMeF = CN[C@@H](Cc1ccccc1)C(=O)O; NMeI = CC[C@H](C)[C@H](NC)C(=O)O; NMeL = CN[C@@H](CC(C)C)C(=O)O; NMeV = CN[C@H](C(=O)O)C(C)C; NMeA = CN[C@@H](C)C(=O)O; Piperidide = C1CCN(*)CC1; dNMeA = CN[C@H](C)C(=O)O; Sar = CNCC(=O)O
ASSAY_ENDPOINT: microsomal CLint at 1 uM (µL/min/mg)
Reply numerically in µL/min/mg, unit not repeated.

Query: Give reported microsomal CLint at 1 uM value for CC[C@H](C)[C@H](NC(=O)[C@H](C)N(C)C(=O)[C@@H]1CCCN1C(=O)[C@@H](NC(=O)[C@@H]1CC(=O)N(C)[C@H](C)C(=O)N(C)[C@@H](CC(C)C)C(=O)N(C)[C@@H](Cc2ccccc2)C(=O)N[C@@H](CC(C)C)C(=O)N(C)[C@@H](Cc2cccc(Cl)c2)C(=O)N[C@@H]([C@@H](C)O)C(=O)N(C)[C@@H](Cc2ccccc2)C(=O)N[C@@H](CC(C)C)C(=O)N1)[C@@H](C)CC)C(=O)N1CCCCC1 [DP-942] ([dNMeA][NMeL][NMeF]L[NMePhe(3-Cl)]T[NMeF]LDIP[NMeA]I-Piperidide; lactam N-9)
Response: 23

Query: Give reported microsomal CLint at 1 uM value for CC(C)C[C@@H]1NC(=O)[C@H](CC(C)C)N(C)C(=O)[C@H](CC(C)C)N(C)C(=O)CNC(=O)[C@H](Cc2ccccc2)N(C)C(=O)[C@H](Cc2cscn2)NC(=O)[C@H](CC(C)C)N(C)C(=O)[C@H](Cc2ccccc2)NC(=O)[C@H](C)NC(=O)C[C@@H](C(=O)N(C)[C@@H](Cc2ccccc2)C(=O)N[C@@H](C)C(=O)N2CCCCC2)NC1=O [DP-609] (AF[NMeL][Ala(4-thiazolyl)][NMeF]G[NMeL][NMeL]LD[NMeF]A-Piperidide; lactam N-10)
Response: 16

Query: Give reported microsomal CLint at 1 uM value for CC(C)C[C@H]1C(=O)N[C@@H]([C@@H](C)O)C(=O)N(C)[C@@H](C)C(=O)N[C@H](C(=O)N2CCCCC2)CC(=O)N[C@H](C)C(=O)N(C)[C@@H](C)C(=O)N(C)[C@@H](Cc2ccccc2)C(=O)N1C [DP-538] ([dA][NMeA][NMeF][NMeL]T[NMeA]D-Piperidide; lactam N-7)
Response: 37

Query: Give reported microsomal CLint at 1 uM value for CC(C)C[C@H]1C(=O)N[C@@H](Cc2ccccc2)C(=O)N[C@@H]([C@@H](C)O)C(=O)N(C)[C@@H](C)C(=O)N[C@H](C(=O)N2CCCCC2)CC(=O)N(C)CC(=O)N[C@@H](C)C(=O)N(C)[C@@H](Cc2ccccc2)C(=O)N(C)[C@@H](CC(C)C)C(=O)N1C [DP-161] ([Sar]A[NMeF][NMeL][NMeL]FT[NMeA]D-Piperidide; lactam N-9)
Response: 194

Query: Give reported microsomal CLint at 1 uM value for "C=C1CCC(=O)N[C@@H](COC(C)(C)C)C(=O)N(CCC)CC(=O)N(C)[C@@H](CC(C)C)C(=O)N[C@@H]([C@@H](C)O)C(=O)N(C)[C@@H](Cc2ccccc2)C(=O)N(C)[C@@H](CC(C)C)C(=O)N(C)[C@@H]([C@@H](C)CC)C(=O)N(C)[C@@H](C)C(=O)N[C@H](C(=O)N2CCCCC2)Cc2ccc1cc2"
Response: 91

Query: Give reported microsomal CLint at 1 uM value for CC[C@H](C)[C@H]1C(=O)N[C@@H](CC(C)C)C(=O)N(C)[C@@H](Cc2ccccc2)C(=O)N(C)[C@@H](CC(C)C)C(=O)N[C@@H]([C@@H](C)O)C(=O)N[C@@H](Cc2ccccc2)C(=O)N(C)[C@@H](C(C)C)C(=O)N[C@H](C(=O)N2CCCCC2)CC(=O)N(C)CC(=O)N[C@@H](C)C(=O)N1C [DP-145] ([Sar]A[NMeI]L[NMeF][NMeL]TF[NMeV]D-Piperidide; lactam N-10)
Response: 232

Query: Give reported microsomal CLint at 1 uM value for CC(C)C[C@@H]1NC(=O)[C@H](Cc2ccccc2)N(C)C(=O)[C@H](C)N(C)C(=O)C[C@@H](C(=O)N2CCCCC2)NC(=O)[C@H](Cc2ccccc2)N(C)C(=O)[C@H](C)N(C)C(=O)[C@H]([C@@H](C)O)NC(=O)CN(C)C(=O)[C@H](C)N(C)C(=O)[C@H](C)NC(=O)[C@H](C(C)C)N(C)C(=O)[C@H](CC(C)C)N(C)C1=O [DP-469] ([NMeA][NMeF]L[NMeL][NMeV]A[NMeA][Sar]T[NMeA][NMeF]D-Piperidide; lactam N-12)
Response: 23

Entry source: patent US9409952B2
